Target: T1, Biotinylated CD3-specific binding domain SEQ ID NO: 13 (biotinylated (site not stated))
T1 construct: Ligand on the neutravidin (NLC) SPR chip; The same domain is the CD3-specific domain of TCE #1
T1 chain: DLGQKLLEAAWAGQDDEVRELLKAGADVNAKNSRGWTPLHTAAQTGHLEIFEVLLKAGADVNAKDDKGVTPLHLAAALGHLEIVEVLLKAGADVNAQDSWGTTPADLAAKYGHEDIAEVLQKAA
Assay: SPR (ProteOn XPR36), 33 C, multi-trace; biotinylated ligand on chip, binder as analyte
pKd: −log10 of the molar value.
attribute_measured: pKd

P: Binder #2 (designed binder) MRGSHHHHHHGSDLGKKLLQAARAGQLDEVRELLKAGADVNAKDFKGLTPLHLAAAHGHLEIVEVLLKAGADVNAKDVYGWTPLHWAAASGHLEIVEVLLKAGADVNAKDWLGITPLHLAASHGHLEIVEVLLKAGADVNAQDKSGKTPADLAARAGHQDIAEVLQKAA
Q: Binder #4 (designed binder) MRGSHHHHHHGSDLGKKLLQAARAGQLDEVRELLKAGADVNAKDFKGLTPLHLAAEHGHLEIVEVLLKAGADVNAKDVYGWTPLHWAAAKGHLEIVEVLLKAGADVNAKDWLGITPLHLAASHGHLEIVEVLLKAGADVNAQDKSGKTPADLAARAGHQDIAEVLQKAA
Enquiry: Lab log: flag the item ( P or Q ) with the smaller pKd figure. // respond with label for picked entry
Return: P
